# target under test: rat ASIC1a (Rattus norvegicus, UniProt P55926)
# Sequence (P55926 1-526): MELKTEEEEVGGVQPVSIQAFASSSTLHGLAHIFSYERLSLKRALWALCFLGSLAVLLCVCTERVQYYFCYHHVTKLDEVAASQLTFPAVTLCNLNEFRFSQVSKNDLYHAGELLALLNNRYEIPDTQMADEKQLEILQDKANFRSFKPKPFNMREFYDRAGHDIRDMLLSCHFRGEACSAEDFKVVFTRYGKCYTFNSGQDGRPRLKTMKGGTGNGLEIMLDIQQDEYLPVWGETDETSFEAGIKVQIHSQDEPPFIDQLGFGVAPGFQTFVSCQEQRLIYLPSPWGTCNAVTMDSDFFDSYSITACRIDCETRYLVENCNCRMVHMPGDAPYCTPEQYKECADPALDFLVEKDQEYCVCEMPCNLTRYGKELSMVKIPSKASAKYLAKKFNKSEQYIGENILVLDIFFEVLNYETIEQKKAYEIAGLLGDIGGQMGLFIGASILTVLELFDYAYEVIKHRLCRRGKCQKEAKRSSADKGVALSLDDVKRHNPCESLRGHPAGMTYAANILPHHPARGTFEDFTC
# test: two-electrode voltage clamp, homomeric rat ASIC1a in X. laevis oocytes
Where a SMILES comes first, the peptide text is derived from it. [ ]: non-standard residue; d: D form.
reported property: EC50 (µM)
Enter your answer as a number in µM; do not include the unit.

// sample C[C@@H](NC(=O)[C@@H](N)Cc1ccc(O)cc1)C(=O)N[C@@H](Cc1ccccc1)C(=O)NCC(N)=O [Taf, Tyr-D-Ala-Phe-Gly-NH2] (H-Y[dA]FG-NH2) , its EC50 was 1050

----------
# target under test: rat ASIC3 (Rattus norvegicus, UniProt O35240)
# Sequence (O35240 whole entry): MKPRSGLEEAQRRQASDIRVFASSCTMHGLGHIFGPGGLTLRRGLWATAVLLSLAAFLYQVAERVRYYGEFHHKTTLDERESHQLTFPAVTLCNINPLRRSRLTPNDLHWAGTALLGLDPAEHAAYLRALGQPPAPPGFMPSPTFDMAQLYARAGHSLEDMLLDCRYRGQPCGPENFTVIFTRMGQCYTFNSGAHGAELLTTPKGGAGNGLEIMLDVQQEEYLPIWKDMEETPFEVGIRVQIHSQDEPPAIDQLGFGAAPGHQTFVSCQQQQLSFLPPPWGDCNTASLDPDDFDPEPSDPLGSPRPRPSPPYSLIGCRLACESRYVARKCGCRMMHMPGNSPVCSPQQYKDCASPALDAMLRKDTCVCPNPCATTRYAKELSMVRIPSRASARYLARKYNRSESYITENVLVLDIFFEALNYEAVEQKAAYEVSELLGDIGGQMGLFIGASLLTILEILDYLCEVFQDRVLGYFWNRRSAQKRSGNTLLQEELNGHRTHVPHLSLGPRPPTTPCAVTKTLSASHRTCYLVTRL
# test: two-electrode voltage clamp, homomeric rat ASIC3 in X. laevis oocytes
Where a SMILES comes first, the peptide text is derived from it. [ ]: non-standard residue; d: D form.
reported property: pEC50
Scale: pEC50 equals -log10([C]), with [C] in mol/L.

// sample C[C@@H](NC(=O)[C@@H](N)Cc1ccc(O)cc1)C(=O)N[C@@H](Cc1ccccc1)C(=O)NCC(N)=O [Taf, Tyr-D-Ala-Phe-Gly-NH2] (H-Y[dA]FG-NH2) , its pEC50 was 4.07

----------
# target under test: rat ASIC3 (Rattus norvegicus)
# Construct: expressed in transfected cells; host or cells: Xenopus laevis oocytes injected with cRNA from a PCi plasmid
# test: cell-based
# applied conditions: half-maximal inhibitory concentration (IC50)
reported property: IC50 (µM)
Enter your answer as a number in µM; do not include the unit.

The measured IC50 that N=C(N)NC(=O)c1nc(Cl)c(N)nc1N [Ami, amiloride] showed for rat ASIC3 (Rattus norvegicus) is 66.9

----------
# target under test: human ASIC3 (Homo sapiens)
# Sequence (Q9UHC3 1-531): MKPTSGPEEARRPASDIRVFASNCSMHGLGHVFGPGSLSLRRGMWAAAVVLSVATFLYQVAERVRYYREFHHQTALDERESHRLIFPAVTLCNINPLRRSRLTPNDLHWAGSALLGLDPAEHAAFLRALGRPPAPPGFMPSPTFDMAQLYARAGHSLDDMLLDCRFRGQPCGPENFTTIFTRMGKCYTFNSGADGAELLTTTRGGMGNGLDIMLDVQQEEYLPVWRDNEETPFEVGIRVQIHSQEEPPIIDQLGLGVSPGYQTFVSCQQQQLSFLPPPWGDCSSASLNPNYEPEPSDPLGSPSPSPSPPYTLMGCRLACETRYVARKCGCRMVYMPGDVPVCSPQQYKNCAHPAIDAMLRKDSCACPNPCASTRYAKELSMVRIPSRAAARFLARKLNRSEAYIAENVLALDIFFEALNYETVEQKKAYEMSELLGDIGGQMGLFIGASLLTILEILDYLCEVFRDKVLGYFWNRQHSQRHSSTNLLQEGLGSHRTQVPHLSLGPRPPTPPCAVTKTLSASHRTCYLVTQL
# test: two-electrode voltage clamp, human ASIC3 in X. laevis oocytes
Where a SMILES comes first, the peptide text is derived from it. [ ]: non-standard residue; d: D form.
reported property: pEC50
Scale: pEC50 equals -log10([C]), with [C] in mol/L.

The measured pEC50 that C[C@@H](NC(=O)[C@@H](N)Cc1ccc(O)cc1)C(=O)N[C@@H](Cc1ccccc1)C(=O)NCC(N)=O [Taf, Tyr-D-Ala-Phe-Gly-NH2] (H-Y[dA]FG-NH2) showed for human ASIC3 (Homo sapiens) is 3.48

Origin of values: paper PMC10855113
